Reference source: patent US10954214B2

test system: IL6 secretion by OCI-LY3 ABC-DLBCL cells; assay: Human IL6 Mesoscale assay (OCI-LY3); assay type: cell-based; details: Homo sapiens, 24 h
Each record here notes measured pIC50.
The quantity pIC50 is defined as the negative base-10 logarithm of the molar concentration.

// known answers, use as guide
Field request: pIC50 | item: CC(O)c1ncc(-n2ncc(C(=O)Nc3cnc(-n4nccn4)c(Cl)c3)c2C(F)(F)F)c2ccccc12 (centres unmarked) [Cpd 371] 7.74

Likewise for N#Cc1cc(NC(=O)c2cnn(-c3cccc4c(=O)[nH]ccc34)c2C(F)(F)F)cnc1-n1nccn1 [Cpd 113] ? 6.77

Likewise for N#Cc1cnn(-c2ncc(NC(=O)c3cnn(-c4cccc5ncccc45)c3C(F)(F)F)cc2Cl)n1 [Cpd 179] ? 6.54

Likewise for O=C(Nc1cnc(-n2nccn2)c(Cl)c1)c1cnn(-c2cnc(O)c3ccccc23)c1C(F)(F)F [Cpd 448] ? 6.93

Likewise for O=C(Nc1cnc(-n2nccn2)c(Cl)c1)c1cnn(-c2cnc(Cl)c3sccc23)c1C(F)(F)F [Cpd 424] ? 6.78

Likewise for COc1cc(-n2ncc(C(=O)Nc3cnc(-n4nccn4)c(Cl)c3)c2C(F)(F)F)c2ccccc2n1 [Cpd 417] ? 6.36

Likewise for O=C(Nc1cnc(-c2ncco2)c(Cl)c1)c1cnn(-c2cccc3c(=O)[nH]ccc23)c1C(F)(F)F [Cpd 127] ? 7.54

Now for the molecule whose pIC50 we want.
Field request: pIC50 | item: O=C(Nc1cc(Cl)c(-n2nccn2)cc1F)c1cnn(-c2cncc3c(F)cccc23)c1C(F)(F)F [Cpd 302] 6.99

---

tested on: IL6 secretion by OCI-LY3 ABC-DLBCL cells; test: Human IL6 Mesoscale assay (OCI-LY3); type: cell-based; conditions: Homo sapiens, 24 h
Each record here notes measured pIC50.
The quantity pIC50 is defined as the negative base-10 logarithm of the molar concentration.

Field request: pIC50 | item: N#Cc1cc(NC(=O)c2cnn(-c3cccc4cn[nH]c34)c2C(F)(F)F)cnc1-n1nccn1 [Cpd 286] 6.70

Continuing:
Field request: pIC50 | item: CNC(=O)c1ncc(NC(=O)c2cnn(-c3cccc4c(=O)[nH]ccc34)c2C(F)(F)F)cc1Cl [Cpd 352] 6.89

Likewise for Cc1nc(-n2nccn2)c(Cl)cc1NC(=O)c1cnn(-c2cncc3ccccc23)c1C(F)(F)F [Cpd 191] ? 7.66

---

biological target: full-length MALT1 protein (Strep-MALT1(1-824)-His) (Homo sapiens (Human))
Sequence (Q9UDY8 whole entry): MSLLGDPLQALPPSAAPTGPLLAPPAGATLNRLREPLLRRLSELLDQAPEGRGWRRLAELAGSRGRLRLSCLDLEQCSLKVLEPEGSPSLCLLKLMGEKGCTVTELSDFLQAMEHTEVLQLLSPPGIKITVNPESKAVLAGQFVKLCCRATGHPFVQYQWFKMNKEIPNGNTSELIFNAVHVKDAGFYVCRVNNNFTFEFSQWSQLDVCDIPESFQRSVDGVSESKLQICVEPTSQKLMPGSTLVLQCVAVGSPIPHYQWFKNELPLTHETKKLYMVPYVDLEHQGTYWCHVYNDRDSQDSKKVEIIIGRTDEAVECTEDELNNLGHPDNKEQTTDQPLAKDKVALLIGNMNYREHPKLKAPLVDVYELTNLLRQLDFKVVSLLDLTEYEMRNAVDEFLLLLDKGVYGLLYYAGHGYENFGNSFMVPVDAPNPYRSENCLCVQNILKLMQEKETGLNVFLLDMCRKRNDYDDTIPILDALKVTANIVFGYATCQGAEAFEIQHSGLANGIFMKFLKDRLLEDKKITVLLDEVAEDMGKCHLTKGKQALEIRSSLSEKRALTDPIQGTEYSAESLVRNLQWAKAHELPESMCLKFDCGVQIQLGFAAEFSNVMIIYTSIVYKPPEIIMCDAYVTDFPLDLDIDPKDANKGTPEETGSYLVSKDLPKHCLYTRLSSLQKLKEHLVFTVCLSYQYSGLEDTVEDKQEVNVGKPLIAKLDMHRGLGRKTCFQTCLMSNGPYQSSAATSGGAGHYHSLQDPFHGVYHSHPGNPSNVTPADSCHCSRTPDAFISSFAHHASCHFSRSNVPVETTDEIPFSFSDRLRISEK
Each record here notes measured IC50.
# unit: nM | format: bare number

// known answers, use as guide
Field request: IC50 | item: Cn1ccc2ccc(NC(=O)c3cnn(-c4cccc5ncccc45)c3C(F)(F)F)cc2c1=O 5370

Likewise for Cc1c(C(=O)Nc2cnc(-n3nccn3)c(Cl)c2)cnn1-c1cccc2ncccc12 ? 759

Likewise for N#Cc1cc(NC(=O)c2cnn(-c3cncc4ccccc34)c2C(F)(F)F)cnc1C(=O)NCCCCN ? 724

Now for the compound whose IC50 we want.
Field request: IC50 | item: O=C1CO[C@@H](c2ncc(-n3ncc(C(=O)Nc4cnc(-n5nccn5)c(Cl)c4)c3C(F)(F)F)c3ccccc23)C1 (single isomer, unassigned) 71

---

tested on: IL6 secretion by OCI-LY3 ABC-DLBCL cells; experiment: Human IL6 Mesoscale assay (OCI-LY3); assay type: cell-based; details: Homo sapiens, 24 h
pIC50: −log10 of the molar value.
class 1 means recorded pIC50 is 7 or above; class 0 means it is below 7.

Consider the following illustrative entries.
Is the recorded value of pIC50 equal to or greater than 7 for this compound? O=C1CCC(c2ncc(-n3ncc(C(=O)Nc4cnc(-n5nccn5)c(Cl)c4)c3C(F)(F)F)c3ccccc23)N1 (stereo not shown) class 1

Likewise for Cc1nc(-c2ccn(C)n2)c(Cl)cc1NC(=O)c1cnn(-c2cccc3c(=O)[nH]ccc23)c1C(F)(F)F ? class 0

Likewise for O=C(Nc1ccc(-n2nccn2)c(Cl)c1)c1cnn(-c2cccc3c(=O)[nH]ccc23)c1C(F)(F)F ? class 1

Likewise for CSc1ncc(-n2ncc(C(=O)Nc3cnc(-n4nccn4)c(Cl)c3)c2C(F)(F)F)c2ccccc12 ? class 0

Continuing:
Is the recorded value of pIC50 equal to or greater than 7 for this compound? Cc1cc(NC(=O)c2cnn(-c3cccc4ncccc34)c2C(F)(F)F)ccc1-n1cc(CN)cn1 class 1

Likewise for Cn1ncc2cccc(-n3ncc(C(=O)Nc4cnc(-n5nccn5)c(C#N)c4)c3C(F)(F)F)c21 ? class 0

Likewise for O=C(Nc1cnc(-n2nc3ccncc3n2)c(Cl)c1)c1cnn(-c2cccc3ncccc23)c1C(F)(F)F ? class 0

Likewise for O=C(Nc1cnc(-n2nccn2)c(Cl)c1)c1cnn(-c2cccc3c[n+]([O-])ccc23)c1C(F)(F)F ? class 1

Likewise for Cc1nc(-n2nccn2)c(Cl)cc1NC(=O)c1cnn(-c2cccc3nnsc23)c1C(F)(F)F ? class 1

Likewise for N#Cc1cncc(NC(=O)c2cnn(-c3cccc4c(=O)[nH]ccc34)c2C(F)(F)F)c1 ? class 0

Likewise for O=C(Nc1cc(Cl)c(-n2nccn2)cc1F)c1cnn(-c2cccc3c(=O)[nH]ccc23)c1C(F)(F)F ? class 0

Likewise for O=C(Nc1cnc(-n2nccn2)c(Cl)c1)c1cnn(-c2cncc3c(F)cccc23)c1C(F)(F)F ? class 1

Likewise for N#Cc1cc(-n2ncc(C(=O)Nc3cnc(-n4nccn4)c(Cl)c3)c2C(F)(F)F)c2ccccc2n1 ? class 0

---

Each record here notes measured pIC50.
test system: IL10 secretion by TMD8 ABC-DLBCL cells; test: Human IL10 Mesoscale assay (TMD-8); format: cell-based; settings: Homo sapiens, TMD8; TMD-8 cells, 24 h
The quantity pIC50 is defined as the negative base-10 logarithm of the molar concentration.

Field request: pIC50 | item: N#Cc1cc(NC(=O)c2cnn(-c3cccc4ncccc34)c2C(F)(F)F)ccc1-n1nccn1 7.27

Continuing:
Field request: pIC50 | item: O=C(Nc1cnc(-n2nccn2)c(Cl)c1)c1cnn(-c2cncc3sc(C(F)F)cc23)c1C(F)(F)F 7.31

Likewise for CC(=O)c1nccc2c(-n3ncc(C(=O)Nc4cnc(-n5nccn5)c(Cl)c4)c3C(F)(F)F)cccc12 ? 6.74

Likewise for Cc1nc(-n2cccn2)c(Cl)cc1NC(=O)c1cnn(-c2cccc3c(=O)[nH]ccc23)c1C(F)(F)F ? 6.95

Likewise for CN1CCC(Oc2ncc(NC(=O)c3cnn(-c4cncc5ccccc45)c3C(F)(F)F)cc2Cl)CC1 ? 6.69

---

tested on: TMD8 cells; test: 4-day proliferation assay, TMD8; type: cell-based; conditions: Homo sapiens, 96 h, 4 days incubation, CellTiterGLO, read-out: Anti-proliferation: TMD-8 IC50
pIC50: −log10 of the molar value.
Each record here notes measured pIC50.

What reported pIC50 corresponds to O=C(Nc1cnc(-n2cc(CO)cn2)c(Cl)c1)c1cnn(-c2cccc3ncccc23)c1C(F)(F)F [Cpd 135] on TMD8 cells? 5.51

Likewise for N#Cc1cc(NC(=O)c2cnn(-c3ccnc4ccoc34)c2C(F)(F)F)cnc1-n1nccn1 [Cpd 150] ? < 5.10

Likewise for O=C(Nc1cnc(-n2nccn2)c(Cl)c1)c1cnn(-c2cccc3ncccc23)c1C(F)(F)F [Cpd 8] ? ~5.12

Continuing:
What reported pIC50 corresponds to O=C(Nc1cnc(-c2nnco2)c(Cl)c1)c1cnn(-c2cncc3ccccc23)c1C(F)(F)F [Cpd 69] on TMD8 cells? ~4.79

Likewise for O=C(Nc1cnc(-n2nccn2)c(F)c1)c1cnn(-c2cncc3ccccc23)c1C(F)(F)F [Cpd 61] ? ~4.85

Likewise for N#Cc1cc(NC(=O)c2cnn(-c3cccc4scnc34)c2C(F)(F)F)cnc1-n1nccn1 [Cpd 316] ? 5.51

Likewise for CN1CCC(Oc2ncc(NC(=O)c3cnn(-c4cncc5ccccc45)c3C(F)(F)F)cc2Cl)CC1 [Cpd 45] ? ~5.03

---

Each record here notes measured pIC50.
tested on: IL10 secretion by TMD8 ABC-DLBCL cells; assay: Human IL10 Mesoscale assay (TMD-8); format: cell-based; conditions: Homo sapiens, TMD8; TMD-8 cells, 24 h
The quantity pIC50 is defined as the negative base-10 logarithm of the molar concentration.

// known answers, use as guide
Field request: pIC50 | item: O=C(Nc1ccc(-n2ccnn2)c(Cl)c1)c1cnn(-c2cncc3ccccc23)c1C(F)(F)F 7.09

Likewise for N#Cc1cc(NC(=O)c2cnn(-c3cncc4ncccc34)c2C(F)(F)F)cnc1-n1nccn1 ? 7.33

Likewise for O=C(Nc1cnc(N2CCCC2=O)c(Cl)c1)c1cnn(-c2cncc3ccccc23)c1C(F)(F)F ? 5.93

Likewise for N#Cc1ncc(-n2ncc(C(=O)Nc3cnc(-n4nccn4)c(Cl)c3)c2C(F)(F)F)c2ccccc12 ? 6.02

Likewise for Cn1ccc(-c2ncc(NC(=O)c3cnn(-c4ccc(F)c5ncccc45)c3C(F)(F)F)cc2C#N)n1 ? 6.64

Continuing:
Field request: pIC50 | item: O=C(Nc1ccc(-n2nccn2)c(Cl)c1)c1cnn(-c2cccc3c(=O)[nH]ccc23)c1C(F)(F)F 6.91
